targetOrTestSystem: T1, MutS (Bacillus subtilis, UniProt P49849 1-858)
T1 sequence: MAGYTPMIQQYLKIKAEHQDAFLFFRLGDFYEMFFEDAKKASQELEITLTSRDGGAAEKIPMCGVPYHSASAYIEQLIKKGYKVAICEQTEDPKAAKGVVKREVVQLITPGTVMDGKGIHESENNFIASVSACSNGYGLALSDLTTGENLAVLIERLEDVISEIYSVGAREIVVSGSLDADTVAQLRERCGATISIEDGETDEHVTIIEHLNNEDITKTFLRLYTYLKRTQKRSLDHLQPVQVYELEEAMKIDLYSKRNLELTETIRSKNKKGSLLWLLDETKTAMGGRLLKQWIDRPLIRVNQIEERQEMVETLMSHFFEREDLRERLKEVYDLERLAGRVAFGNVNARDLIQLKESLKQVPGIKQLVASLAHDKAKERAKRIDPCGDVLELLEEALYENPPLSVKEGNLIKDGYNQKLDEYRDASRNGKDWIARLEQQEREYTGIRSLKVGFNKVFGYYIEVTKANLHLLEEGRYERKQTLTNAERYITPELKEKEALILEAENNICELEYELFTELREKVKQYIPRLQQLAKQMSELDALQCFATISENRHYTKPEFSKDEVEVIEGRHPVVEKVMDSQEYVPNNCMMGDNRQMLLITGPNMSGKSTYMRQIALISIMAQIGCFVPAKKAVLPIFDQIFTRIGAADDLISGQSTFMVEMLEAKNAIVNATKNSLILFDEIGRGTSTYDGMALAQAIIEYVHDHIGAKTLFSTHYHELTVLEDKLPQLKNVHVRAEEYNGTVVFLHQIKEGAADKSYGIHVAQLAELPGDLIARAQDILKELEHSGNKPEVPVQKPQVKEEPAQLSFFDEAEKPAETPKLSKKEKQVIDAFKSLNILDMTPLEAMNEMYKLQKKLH
measurementDescription: 2-aminopurine fluorescence titration
readoutType: pKd
# pKd = -log10(concentration in molar units)

Noted for 2-AP(+T) T-bulge duplex (dsDNA, 2-aminopurine at position 18 of strand 1 (written as A)) DNA 1: TAAAGGAAGTCGTCTATATATGGTATGACTAAGTGTA DNA 2: TACACTTAGTCATACCATTATAGACGACTTCCTTTA : its pKd reads 7.62
